# tested-on: 2-Hydroxyacid oxidase 1 (Mus musculus, UniProt Q9WU19)
# Sequence (Q9WU19 whole entry): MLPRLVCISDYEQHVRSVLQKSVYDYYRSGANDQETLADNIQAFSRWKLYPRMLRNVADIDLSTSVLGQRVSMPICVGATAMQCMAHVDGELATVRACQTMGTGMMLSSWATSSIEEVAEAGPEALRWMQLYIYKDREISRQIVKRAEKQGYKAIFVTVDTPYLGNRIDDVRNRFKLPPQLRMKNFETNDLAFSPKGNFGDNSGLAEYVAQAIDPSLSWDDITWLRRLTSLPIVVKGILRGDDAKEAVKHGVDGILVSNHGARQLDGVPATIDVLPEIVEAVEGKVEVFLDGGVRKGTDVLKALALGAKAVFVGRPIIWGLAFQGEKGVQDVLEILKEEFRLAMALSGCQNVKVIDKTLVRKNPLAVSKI
# protocol-text: Inhibition of mouse recombinant glycolate oxidase expressed in Escherichia coli using glycolate as substrate by Dixon plot and Cornish-Bowden plot analysis
quantity-measured: pKi
Answers are plain numbers, as −log10 of the molar value.

Could you tell me which pKi is on file for O=Cc1ccc(-c2ccc(O)c(C(=O)O)c2)o1 ?
4.33

###

# tested-on: 2-Hydroxyacid oxidase 1 (Mus musculus)
# Sequence (Q9WU19 whole entry): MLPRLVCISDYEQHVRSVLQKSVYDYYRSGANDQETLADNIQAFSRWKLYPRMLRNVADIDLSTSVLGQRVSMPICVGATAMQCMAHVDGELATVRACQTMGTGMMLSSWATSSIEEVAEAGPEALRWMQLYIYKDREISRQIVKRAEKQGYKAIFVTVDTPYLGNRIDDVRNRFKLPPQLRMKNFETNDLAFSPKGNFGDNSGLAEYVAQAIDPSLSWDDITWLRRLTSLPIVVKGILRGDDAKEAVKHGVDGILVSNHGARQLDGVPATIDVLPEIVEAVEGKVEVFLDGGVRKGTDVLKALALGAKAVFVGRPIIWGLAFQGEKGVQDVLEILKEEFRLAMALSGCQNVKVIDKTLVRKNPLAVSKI
# protocol-text: Inhibition of mouse N-terminal His-tagged glycolate oxidase expressed in BL21(DE3) Escherichia coli using glycolate as substrate by Cornish-Bowden plot analysis
quantity-measured: pKi
Give bare numbers, as −log10 of the molar value.

Could you tell me which pKi is on file for O=C(O)c1nnsc1Sc1ccc(Cl)cc1 ?
4.69

###

# tested-on: 2-Hydroxyacid oxidase 1 (Mus musculus) (UniProt Q9WU19)
# protocol-text: Inhibition of mouse recombinant glycolate oxidase expressed in Escherichia coli at 25 uM using glycolate as substrate after 1 min by sulfonated DCIP dye-based assay relative to control
Tick fulfilled if inhibition is 40% or greater. Tick not fulfilled if inhibition is less than 40%.

O=C(O)c1cc(Oc2ccc([N+](=O)[O-])cc2)c2ccccc2c1O fulfilled

Given O=C(O)c1cc(Sc2nnnn2-c2ccccc2)c2ccccc2c1O , state whether its inhibition is at least 40%.
fulfilled

Given COc1ccc(COc2ccc(-c3ccc(C(=O)O)c(O)c3)cc2)cc1 , state whether its inhibition is at least 40%.
fulfilled

Given COc1cc(-c2ccc(C=O)o2)ccc1C(=O)O , state whether its inhibition is at least 40%.
not fulfilled

Given O=C(O)c1ccc(-c2ccc(C(=O)O)c(O)c2)o1 , state whether its inhibition is at least 40%.
not fulfilled

Given O=Cc1ccc(-c2cccc(C(=O)O)c2)o1 , state whether its inhibition is at least 40%.
not fulfilled

Given O=Cc1ccc(-c2ccc(C(=O)O)c(O)c2)s1 , state whether its inhibition is at least 40%.
not fulfilled

Given O=C(O)c1ccc(-c2ccc([N+](=O)[O-])cc2)cc1O , state whether its inhibition is at least 40%.
fulfilled

Given O=C(O)c1ccc(-c2cccs2)cc1O , state whether its inhibition is at least 40%.
not fulfilled
